These measurements were taken from patent US20230183352A1.

biological target: T1, Claudin 18.2 (CLDN18.2), expressed on CHOS-CLDN 18.2 / HEK293-CLDN 18.2 / HCC827-CLDN 18.2 cells (human, UniProt P56856-2 1-261); experiment: FACS, CHOS-CLDN18.2 cells, 0.020 µg/ml
T1 construct: whole, on cells; The species is not repeated for the CHOS-CLDN 18.2 cells; also called claudin-18A2
READOUT LABEL: FACS reading
Answers are plain numbers.

Q. Give its FACS reading value. Item: QP14581453 (antibody, human IgG1, kappa, V domains shown, Humanized from QP201202) VH: QVQLVQSGAEVKKPGASVKVSCKASGYTFTNYFVHWVKQAPGQGLEWIGYINPYNDDTKYNEKFKGKATLTRDTSTSTVYMELSSLRSEDTAVYYCLSLRFFAYWGQGTLVTVSS VL: DIVMTQSPDSLAVSLGERATISCKSSQSLLNSGNQKNYLTWYQQKPGQAPKLLIYWASTRESGVPDRFSGSGSGTDFTLTISSLQAEDVAVYYCQNDYSYPLTFGGGTKVEIKR
A. 5920
